Kindly state OD450 nm for each of the entries shown.
biological target: monkey GPC3-His protein (monkey); experiment: ELISA, monkey GPC3-His coated; antibody 0.11 nM
Answer with the value's number alone.

Please indicate OD450 nm recorded for hAb005LH2L1 (antibody, human IgG1, V domains shown) VH: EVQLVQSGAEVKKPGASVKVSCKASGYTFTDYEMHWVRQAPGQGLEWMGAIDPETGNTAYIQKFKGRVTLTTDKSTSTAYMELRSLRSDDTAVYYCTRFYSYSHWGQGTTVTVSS VL: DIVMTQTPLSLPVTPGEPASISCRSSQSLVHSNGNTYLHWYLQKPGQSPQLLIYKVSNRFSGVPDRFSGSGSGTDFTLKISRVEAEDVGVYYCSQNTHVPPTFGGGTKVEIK
1.13

Please indicate OD450 nm recorded for hAb005LH3L1a (antibody, human IgG1, V domains shown) VH: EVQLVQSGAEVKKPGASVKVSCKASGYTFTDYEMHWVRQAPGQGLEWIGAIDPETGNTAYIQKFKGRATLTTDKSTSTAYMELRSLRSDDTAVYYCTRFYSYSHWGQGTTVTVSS VL: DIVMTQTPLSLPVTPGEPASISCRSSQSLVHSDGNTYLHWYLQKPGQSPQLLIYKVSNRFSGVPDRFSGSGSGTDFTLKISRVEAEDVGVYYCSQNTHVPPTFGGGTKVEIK
0.038

Please indicate OD450 nm recorded for hAb006LH1L1 (antibody, human IgG1, V domains shown) VH: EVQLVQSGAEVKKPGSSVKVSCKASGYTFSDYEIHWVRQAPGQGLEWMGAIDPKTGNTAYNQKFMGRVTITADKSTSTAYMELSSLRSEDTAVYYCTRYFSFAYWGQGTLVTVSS VL: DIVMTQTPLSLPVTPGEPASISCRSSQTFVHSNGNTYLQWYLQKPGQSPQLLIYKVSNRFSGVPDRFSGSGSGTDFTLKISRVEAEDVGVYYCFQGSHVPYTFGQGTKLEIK
2.02
